# Test system: PSMA Fab (SEQ ID NOs: 19, 20) binding to the PSMA antigen
# Sequence (as listed by the source): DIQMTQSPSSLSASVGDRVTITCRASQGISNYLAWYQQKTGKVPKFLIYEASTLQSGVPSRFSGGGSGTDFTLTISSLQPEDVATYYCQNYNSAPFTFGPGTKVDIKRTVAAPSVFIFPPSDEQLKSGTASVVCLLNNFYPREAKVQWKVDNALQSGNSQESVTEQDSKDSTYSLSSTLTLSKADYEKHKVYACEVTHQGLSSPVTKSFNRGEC
# Sequence (as listed by the source): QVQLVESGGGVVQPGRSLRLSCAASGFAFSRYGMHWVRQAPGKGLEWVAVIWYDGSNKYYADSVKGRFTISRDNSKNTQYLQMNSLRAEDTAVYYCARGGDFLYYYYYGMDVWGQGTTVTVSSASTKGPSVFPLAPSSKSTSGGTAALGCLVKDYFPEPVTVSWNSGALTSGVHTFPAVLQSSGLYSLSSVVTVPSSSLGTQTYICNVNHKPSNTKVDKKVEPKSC
# Sequence (Q04609 whole entry partner): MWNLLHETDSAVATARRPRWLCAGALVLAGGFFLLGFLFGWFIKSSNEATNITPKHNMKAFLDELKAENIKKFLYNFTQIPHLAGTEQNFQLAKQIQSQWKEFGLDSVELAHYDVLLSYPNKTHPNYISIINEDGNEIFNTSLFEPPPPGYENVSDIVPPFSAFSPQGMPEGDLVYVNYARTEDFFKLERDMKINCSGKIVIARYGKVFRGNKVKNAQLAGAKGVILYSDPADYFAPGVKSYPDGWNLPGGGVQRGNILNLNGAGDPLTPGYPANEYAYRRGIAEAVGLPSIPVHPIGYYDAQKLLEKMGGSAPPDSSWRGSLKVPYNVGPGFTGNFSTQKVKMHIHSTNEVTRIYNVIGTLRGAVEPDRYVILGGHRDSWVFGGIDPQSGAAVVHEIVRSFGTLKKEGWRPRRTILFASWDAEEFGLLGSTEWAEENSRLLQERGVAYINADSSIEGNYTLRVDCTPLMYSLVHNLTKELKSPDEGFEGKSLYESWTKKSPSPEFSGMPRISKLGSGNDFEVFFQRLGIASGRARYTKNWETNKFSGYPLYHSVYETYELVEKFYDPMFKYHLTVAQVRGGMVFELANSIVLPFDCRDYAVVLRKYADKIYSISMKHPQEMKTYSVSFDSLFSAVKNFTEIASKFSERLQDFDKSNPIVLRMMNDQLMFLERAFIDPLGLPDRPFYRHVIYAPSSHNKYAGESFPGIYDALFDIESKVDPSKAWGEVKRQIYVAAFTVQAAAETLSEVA
# test-name: Inhibition of PSMA Fab binding to PSMA by peptides, competition ELISA (incl. alanine scanning)
# Design: key: tolerant (T); somewhat tolerant (ST); intolerant (IT)
# condition-info: Table 41; alanine scanning of Peptide-180, change in binding inhibition relative to non-mutated peptide
# Procedure: PSMA Fab fixed at 0.3 nanomolar (nM) concentration was pre-incubated with 0-100 micromolar (μM) titrated peptides. After a short pre-incubation period, the mixture of titrated peptide with fixed PSMA Fab were added to the PSMA antigen coated plates. After a short incubation on the plates, bound PSMA Fab was detected with a standard horse radish peroxidase conjugated secondary antibody. […]
readout-type: Mutation Status

Solved cases (5 shown):
[[record]]
chain_sequence = "IAVLCQPAWMCAGF [Peptide-256]"
readout_type = "Mutation Status"
value_observed = "T"

[[record]]
chain_sequence = "IAVLCAPNWMCAGF [Peptide-254]"
readout_type = "Mutation Status"
value_observed = "T"

[[record]]
chain_sequence = "IAVLCQPNWACAGF [Peptide-258]"
readout_type = "Mutation Status"
value_observed = "IT"

[[record]]
chain_sequence = "IAVLCQPNWMCAGA [Peptide-260]"
readout_type = "Mutation Status"
value_observed = "ST"

[[record]]
chain_sequence = "IAVLCQANWMCAGF [Peptide-255]"
readout_type = "Mutation Status"
value_observed = "IT"


Exam item: Give the reported Mutation Status for AAVLCQPNWMCAGF [Peptide-251] (system: PSMA Fab (SEQ ID NOs: 19, 20) binding to the PSMA antigen).
Marked response: T

Exam item: Next record, please: IAVACQPNWMCAGF [Peptide-253]
Marked response: ST

Numbers sourced from patent US20260242478A1.
